Recorded viability values for a group of molecules are listed next.
Assay: HUVEC growth inhibition – cell-based, human, primary screen (AID 575);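 further: 100% = median of untreated cell wells with 0.1% DMSO on each plate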
Details: HUVEC proliferation, CellTiter-Glo luminescence, 72 h; at 10 µM; hits give low values
The answer is to be given in %; state only the numeric part.

- molecule: "CC(=O)Nc1ccc(NS(=O)(=O)c2ccc(Cl)c(C(=O)O)c2)cc1"
  viability, %: 100
- molecule: "CCCC(=O)Nc1cnc(NC(=O)c2cccc(F)c2)cc1C"
  viability, %: 90.3
- molecule: "Cc1cncn1CCc1nc2c3ccccc3nc(=S)n2[nH]1"
  viability, %: 89.2
- molecule: "COc1cccc(NC(=O)CC2SC(=Nc3ccccc3)NC2=O)c1 (stereo not drawn)"
  viability, %: 106
- molecule: "CCCS(=O)(=O)C(=C1Nc2ccccc2N1)S(=O)(=O)CCC"
  viability, %: 93.4
- molecule: "Cc1ccccc1Cn1ccc(NC(=O)c2cnn3c(C(F)(F)F)cc(-c4ccco4)nc23)n1"
  viability, %: 62.3
- molecule: "c1cncc(C2Nc3ccccc3-c3nc4ccccc4n32)c1 (stereo not drawn)"
  viability, %: 98.1
- molecule: "CCOc1ccccc1-n1c(SCC(=O)NC2CCCC2)nnc1-c1ccoc1C"
  viability, %: 97
- molecule: "Cc1cccc(NC(=O)CN(C)S(=O)(=O)c2ccccc2)n1"
  viability, %: 107
- molecule: "CC1CC(C)CN(CC(=O)Nc2ccc(S(N)(=O)=O)cc2)C1 (stereo not drawn)"
  viability, %: 96.9

Input line: Given the molecule Cc1nc(C)c(C(=O)C2=C(O)C(=O)N(CCN3CCOCC3)C2c2ccco2)s1 (stereo not drawn) , what is its reported viability?
Output line: 109

Input line: Given the molecule `CN1CCN(c2nc3c(c(=O)n(C)c(=O)n3C)n2Cc2cccc3ccccc23)CC1` , what is its reported viability?
Output line: 77.5
